Kindly supply the reported sfGFP reporter fluorescence values for the records listed here.
B1: library; numbered along this chain (parent)
chain: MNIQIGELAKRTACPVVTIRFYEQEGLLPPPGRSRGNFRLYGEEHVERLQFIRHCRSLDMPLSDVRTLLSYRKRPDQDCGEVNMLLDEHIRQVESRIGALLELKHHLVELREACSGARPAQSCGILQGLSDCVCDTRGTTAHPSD

Variants of: B1
Experiment: sfGFP reporter fluorescence (15 h) (µM FITC); higher = higher leak
Settings: library round: Round 0; ligand: none
Lab note: record just the number, no unit beside it.

May I ask what sfGFP reporter fluorescence has been recorded for C123K ? 0.0592

May I ask what sfGFP reporter fluorescence has been recorded for P143W ? 0.0588

May I ask what sfGFP reporter fluorescence has been recorded for D64H ? 0.0682

May I ask what sfGFP reporter fluorescence has been recorded for V16F ? 0.0623

May I ask what sfGFP reporter fluorescence has been recorded for C55Q ? 0.0594

May I ask what sfGFP reporter fluorescence has been recorded for M1A ? 0.0618

May I ask what sfGFP reporter fluorescence has been recorded for G128H ? 0.0608

May I ask what sfGFP reporter fluorescence has been recorded for L107H ? 0.0566

May I ask what sfGFP reporter fluorescence has been recorded for P29A ? 0.0607

May I ask what sfGFP reporter fluorescence has been recorded for V82D ? 0.057

May I ask what sfGFP reporter fluorescence has been recorded for Y22A ? 0.0603

May I ask what sfGFP reporter fluorescence has been recorded for C134N ? 0.0651
